Target Or Test System: mouse 11β-HSD1 (Mus musculus, UniProt P50172)
Construct: 100 ug/ml human/mouse liver microsomes; from tissue; host or cells: mouse liver microsomes
Sequence (P50172 whole entry): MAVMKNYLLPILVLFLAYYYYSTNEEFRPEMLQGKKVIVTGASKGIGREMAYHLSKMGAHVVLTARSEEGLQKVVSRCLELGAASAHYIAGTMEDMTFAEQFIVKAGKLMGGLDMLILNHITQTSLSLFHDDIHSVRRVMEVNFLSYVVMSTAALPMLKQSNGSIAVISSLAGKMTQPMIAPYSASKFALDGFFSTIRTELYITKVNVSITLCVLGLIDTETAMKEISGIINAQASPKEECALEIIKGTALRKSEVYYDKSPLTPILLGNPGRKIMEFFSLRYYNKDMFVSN
Protocol Summary: Enzyme activity analysis on mouse 11β-HSD1 (HTRF cortisol, liver microsomes)
Assay type: biochemical
Test Conditions: second value of cell
Catalogue of IC50 readings, one per entry.

Below are worked cases with known answers.
{"Compound": "CC(C)(NS(=O)(=O)Cc1ccc(Cl)c(Cl)c1)C(=O)NC1C2CC3CC(C2)CC1C3 (stereo not drawn) [compound 35]", "Target Or Test System": "mouse 11β-HSD1 (Mus musculus, UniProt P50172)", "Result Value": "> 2.5 µM"}
{"Compound": "CC(C)NC(=O)C12CC3CC(C1)C(NC(=O)C(C)(C)NS(=O)(=O)c1ccccc1Br)C(C3)C2 (stereo not drawn) [compound 228]", "Target Or Test System": "mouse 11β-HSD1 (Mus musculus, UniProt P50172)", "Result Value": "> 2.5 µM"}

# next compound below
Exam item: Supply reported IC50 belonging to this compound: CC(C)(NS(=O)(=O)c1cc(Cl)ccc1Cl)C(=O)NC1C2CC3CC(C2)CC1C3 (stereo not drawn) [compound 9]
Marked response: > 2.5 µM

###

Target Or Test System: human 11β-HSD1 (Homo sapiens, UniProt P28845)
Construct: 100 ug/ml human/mouse liver microsomes; from tissue; host or cells: human liver microsomes
Sequence (P28845 whole entry): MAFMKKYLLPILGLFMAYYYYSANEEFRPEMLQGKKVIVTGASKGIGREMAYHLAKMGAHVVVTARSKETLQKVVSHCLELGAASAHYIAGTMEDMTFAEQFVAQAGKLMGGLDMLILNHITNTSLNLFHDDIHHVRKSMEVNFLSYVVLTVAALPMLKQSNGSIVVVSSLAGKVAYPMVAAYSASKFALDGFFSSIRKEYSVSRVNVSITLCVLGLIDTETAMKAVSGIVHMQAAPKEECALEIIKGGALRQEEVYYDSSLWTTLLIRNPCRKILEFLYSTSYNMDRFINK
Protocol Summary: Enzyme activity analysis on human 11β-HSD1 (HTRF cortisol, liver microsomes)
Format: biochemical
Test Conditions: first value of cell
Catalogue of IC50 readings, one per entry.

Below are worked cases with known answers.
{"Molecule": "COc1ccc(S(=O)(=O)NC(C)(C)C(=O)NC2C3CC4CC2CC(C(N)=O)(C4)C3)cc1 (centres unmarked)", "Target Or Test System": "human 11β-HSD1 (Homo sapiens, UniProt P28845)", "IC50": "> 2.5 µM"}
{"Molecule": "CC(C)(NS(=O)(=O)Cc1ccccc1Cl)C(=O)NC1C2CC3CC(C2)CC1C3 (centres unmarked)", "Target Or Test System": "human 11β-HSD1 (Homo sapiens, UniProt P28845)", "IC50": "0.048 µM"}
{"Molecule": "Cc1ccc(F)cc1S(=O)(=O)NC(C)(C)C(=O)NC1C2CC3CC1CC(C(N)=O)(C3)C2 (centres unmarked)", "Target Or Test System": "human 11β-HSD1 (Homo sapiens, UniProt P28845)", "IC50": "0.013 µM"}
{"Molecule": "NC(=O)C12CC3CC(C1)C(NC(=O)C1(NS(=O)(=O)c4ccccc4Br)CCC1)C(C3)C2 (centres unmarked)", "Target Or Test System": "human 11β-HSD1 (Homo sapiens, UniProt P28845)", "IC50": "0.024 µM"}
{"Molecule": "CN(C(C)(C)C(=O)NC1C2CC3CC1CC(O)(C3)C2)S(=O)(=O)c1ccccc1N (centres unmarked)", "Target Or Test System": "human 11β-HSD1 (Homo sapiens, UniProt P28845)", "IC50": "0.011 µM"}
{"Molecule": "NC(=O)C12CC3CC(C1)C(NC(=O)C1(NS(=O)(=O)c4cccc(Cl)c4Cl)CCCCC1)C(C3)C2 (centres unmarked)", "Target Or Test System": "human 11β-HSD1 (Homo sapiens, UniProt P28845)", "IC50": "0.017 µM"}

Exam item: Supply reported IC50 belonging to this molecule: CC(C)NC(=O)C12CC3CC(C1)C(NC(=O)C(C)(C)NS(=O)(=O)c1ccccc1Cl)C(C3)C2 (centres unmarked)
Marked response: > 2.5 µM

Exam item: Supply reported IC50 belonging to this molecule: Cc1ccccc1S(=O)(=O)N(C)C(C)(C)C(=O)NC1C2CC3CC1CC(O)(C3)C2 (centres unmarked)
Marked response: 0.006 µM

Exam item: Supply reported IC50 belonging to this molecule: COc1ccc(S(=O)(=O)NC(C)(C)C(=O)NC2C3CC4CC2CC(C(N)=O)(C4)C3)c(OC)c1 (centres unmarked)
Marked response: 0.096 µM

Exam item: Supply reported IC50 belonging to this molecule: Cc1ccc(F)c(S(=O)(=O)NC(C)(C)C(=O)NC2C3CC4CC2CC(C(N)=O)(C4)C3)c1 (centres unmarked)
Marked response: 0.013 µM

Exam item: Supply reported IC50 belonging to this molecule: Cc1ccc(F)cc1S(=O)(=O)NC1(C(=O)NC2C3CC4CC2CC(C(N)=O)(C4)C3)CCC1 (centres unmarked)
Marked response: 0.101 µM
